Substrate: NC(=O)C1=CN([C@@H]2O[C@H](COP(=O)(O)OP(=O)(O)OC[C@H]3O[C@@H](n4cnc5c(N)ncnc54)[C@H](OP(=O)(O)O)[C@@H]3O)[C@@H](O)[C@H]2O)C=CC1
Test: purified protein, by the assay type
Conditions: other: NADPH 6-300 μM, 10 mM methylglyoxal, pH 7.5, 37° C.
Observable: kcat (s⁻¹)
Answer in s⁻¹, number only, no unit symbol.

For orientation, consider the following solved cases.
E. coli YqhD variant YqhD*(G149E) (Escherichia coli K-12; G149E) (protein) MNNFNLHTPTRILFGKGAIAGLREQIPHDARVLITYGGGSVKKTGVLDQVLDALKGMDVLEFGGIEPNPAYETLMNAVKLVREQKVTFLLAVGGGSVLDGTKFIAAAANYPENIDPWHILQTGGKEIKSAIPMGCVLTLPATGSESNAEAVISRKTTGDKQAFHSAHVQPVFAVLDPVYTYTLPPRQVANGVVDAFVHTVEQYVTKPVDAKIQDRFAEGILLTLIEDGPKALKEPENYDVRANVMWAATQALNGLIGAGVPQDWATHMLGHELTAMHGLDHAQTLAIVLPALWNEKRDTKRAKLLQYAERVWNITEGSDDERIDAAIAATRNFFEQLGVPTHLSDYGLDGSSIPALLKKLEEHGMTQLGENHDITLDVSRRIYEAAR ... 3.4
E. coli YqhD variant YqhD*(G149S) (Escherichia coli K-12; G149S) (protein) MNNFNLHTPTRILFGKGAIAGLREQIPHDARVLITYGGGSVKKTGVLDQVLDALKGMDVLEFGGIEPNPAYETLMNAVKLVREQKVTFLLAVGGGSVLDGTKFIAAAANYPENIDPWHILQTGGKEIKSAIPMGCVLTLPATGSESNASAVISRKTTGDKQAFHSAHVQPVFAVLDPVYTYTLPPRQVANGVVDAFVHTVEQYVTKPVDAKIQDRFAEGILLTLIEDGPKALKEPENYDVRANVMWAATQALNGLIGAGVPQDWATHMLGHELTAMHGLDHAQTLAIVLPALWNEKRDTKRAKLLQYAERVWNITEGSDDERIDAAIAATRNFFEQLGVPTHLSDYGLDGSSIPALLKKLEEHGMTQLGENHDITLDVSRRIYEAAR ... 2.7

Next item in the queue.
[ask] Record request: kcat value, item E. coli YqhD variant YqhD*(G149S A286T) (Escherichia coli K-12; A286T/G149S) (protein) MNNFNLHTPTRILFGKGAIAGLREQIPHDARVLITYGGGSVKKTGVLDQVLDALKGMDVLEFGGIEPNPAYETLMNAVKLVREQKVTFLLAVGGGSVLDGTKFIAAAANYPENIDPWHILQTGGKEIKSAIPMGCVLTLPATGSESNASAVISRKTTGDKQAFHSAHVQPVFAVLDPVYTYTLPPRQVANGVVDAFVHTVEQYVTKPVDAKIQDRFAEGILLTLIEDGPKALKEPENYDVRANVMWAATQALNGLIGAGVPQDWATHMLGHELTAMHGLDHAQTLTIVLPALWNEKRDTKRAKLLQYAERVWNITEGSDDERIDAAIAATRNFFEQLGVPTHLSDYGLDGSSIPALLKKLEEHGMTQLGENHDITLDVSRRIYEAAR
[reply] 2.2

Every entry's value here was drawn from patent US8969053B2.
